Hello, the source for this data is ChEMBL document CHEMBL1153472, in case you need it.

test: Oral bioavailability in dog; format: ADME, organism-based, Canis lupus familiaris; settings: in vivo
Measured Attribute: bioavailability (%)

{"Compound Structure String": "CC(C)Oc1cc(-c2ccc(CCNC[C@H](O)c3cccc(N)c3)cc2)ccc1C(=O)NS(C)(=O)=O", "Measure Unit": "%", "Value": 46}
{"Compound Structure String": "C[C@H](NCCc1ccc(-c2ccc(C(=O)NS(C)(=O)=O)c(OC3CCCCC3)c2)cc1)[C@H](O)c1ccc(O)cc1", "Measure Unit": "%", "Value": 25}
{"Compound Structure String": "CC(C)Oc1cc(-c2ccc(CCN[C@@H](C)[C@H](O)c3ccc(O)cc3)cc2)ccc1C(=O)NS(C)(=O)=O", "Measure Unit": "%", "Value": 56}

I = CC(=O)Nc1ccc([C@@H](O)CNCCc2ccc(-c3ccc(C(=O)NS(C)(=O)=O)c(OC4CCCCC4)c3)cc2)cn1
II = CS(=O)(=O)NC(=O)c1ccc(-c2ccc(C[C@@H](CO)NC[C@H](O)c3ccccc3)cc2)cc1OC1CCCCC1
For the pair I and II , which entry has the numerically smaller recorded bioavailability? Reply with the label of the item you choose. I
(I: 43%, II: 95%)
